Recorded % inhibition, Replicate B by entry
test system: P. berghei ookinete development; settings: primary screen at 1 μM, replicate B
Answer format: number, then unit.

Fill in: % inhibition, Replicate B of Cc1nc(C)c(-c2ccc(Oc3ccc(Cl)cc3Cl)cc2)c(O)c1Br [TCMDC-137533] is ___ 92.36%

---

Recorded Pb ODA (this manuscript) HepG2 cytoxicity by entry
test system: HepG2 cells; test: HepG2 cytotoxicity assay; conditions: HepG2 cytotoxicity listed with the Pb ODA data set (this manuscript)
The figure you give is taken to be in µM; do not add the unit.

// below: answered molecules
INSERT INTO assay_data (molecule, reported_value) VALUES
  ('Cc1[nH]c(C)c(-c2ccc(Oc3cccc(OC(F)(F)F)c3)cc2)c(=O)c1Cl', 100.00),
  ('CN1CCN(c2ccc(Nc3ncc(C#N)c(Nc4ccccc4C(N)=O)n3)cc2)CC1.Cl', 2.43),
  ('CC1CN(Cc2ccc(-c3ccc(-c4nc5ccccc5[nH]4)cc3)cc2)CC(C)O1.O=C(O)C(F)(F)F (centres unmarked)', 30.20),
  ('CCC(CC)n1cc2c(ccc3nc(N)nc(N)c32)n1', 0.0017);

Fill in: Pb ODA (this manuscript) HepG2 cytoxicity of Cc1[nH]c(C)c(-c2ccc(OCc3ccc(F)cc3)cc2)c(=O)c1Br is ___ 100.00

Fill in: Pb ODA (this manuscript) HepG2 cytoxicity of Br.COc1ccc(CC(C)CON2C(N)=NC(N)=NC2(C)C)cc1 (centres unmarked) is ___ 0.001

Fill in: Pb ODA (this manuscript) HepG2 cytoxicity of Cc1cc(=O)c(-c2ccc(Oc3cccc(C(F)(F)F)c3)cc2)c(C)[nH]1 [TCMDC-137536] is ___ 100.00

Fill in: Pb ODA (this manuscript) HepG2 cytoxicity of NC(=O)c1ccccc1Nc1nc(Nc2cccc(N3CCN(CCO)CC3)c2)ncc1Cl is ___ 41.69

---

P. berghei ookinete development Is compound selective in assay? Pb ODA active? data

// below: answered compounds
INSERT INTO assay_data (structure_string, reported_value) VALUES
  ('Cc1[nH]c(C)c(-c2ccc(C(F)(F)F)cc2)c(=O)c1Br', '1 (key: 1: YES; 0: NO)'),
  ('CCCCCCCc1c(C)nc2c(OC)cccc2c1O', '1 (key: 1: YES; 0: NO)'),
  ('CCCCCCCc1c(C)nc2cccc(OC)c2c1O', '0 (key: 1: YES; 0: NO)');

Quick check: Is compound selective in assay? Pb ODA active? on P. berghei ookinete development, item CCc1c(C)nc(-n2nc(C)cc2NC(=O)c2ccc(OC)cc2OC)[nH]c1=O ? 0 (key: 1: YES; 0: NO)

Quick check: Is compound selective in assay? Pb ODA active? on P. berghei ookinete development, item COc1ccc(Cn2ncc3c4c(N)nc(N)nc4ccc32)cc1OC ? 0 (key: 1: YES; 0: NO)

Quick check: Is compound selective in assay? Pb ODA active? on P. berghei ookinete development, item COc1ccc2ncc(F)c(CCN3CCC(NCc4cc(C)c5c(c4)OCCO5)CC3)c2n1.Cl ? 1 (key: 1: YES; 0: NO)

Quick check: Is compound selective in assay? Pb ODA active? on P. berghei ookinete development, item Br.CC(C)(C)c1ccccc1OCCCON1C(=N)N=C(N)NC1(C)C ? 0 (key: 1: YES; 0: NO)

Quick check: Is compound selective in assay? Pb ODA active? on P. berghei ookinete development, item NC(=O)c1ccccc1Nc1nc(Nc2cccc(N3CCN(CCO)CC3)c2)ncc1Cl ? 1 (key: 1: YES; 0: NO)

Quick check: Is compound selective in assay? Pb ODA active? on P. berghei ookinete development, item C=CCOc1ccc(-c2c(C)[nH]c(C)c(Br)c2=O)cc1 ? 1 (key: 1: YES; 0: NO)
